Reference source: PubChem BioAssay (NCI)

Tested on: MDA-MB-231 breast
Test: NCI-60 one-dose screen, 48 h
Conditions: 10 µM unless noted
This is part of a sample that, as a whole, favours compounds with a hit. Of some 83,000 tested, about 20% had one in any assay. Calls of active or inactive are those of the source. How the source made its calls: active means growth percent below 10; inactive means the rest.
Form entry, call: pick from label 1 (active), label 0 (inactive)

CN(C)CC(O)c1ccc(/C=C/c2ccc(Cl)cc2)cc1 (stereo not drawn)
label 1
COc1cc(/C=C/C(=O)c2nc3cc(F)ccc3nc2C)cc(OC)c1OC
label 0
N#C/C(=C\c1ccc([N+](=O)[O-])s1)c1nc2cc(Cl)ccc2s1
label 1
COc1cc2c(c(O)c1Br)C(=O)c1c(O)cc(C[C@H](C)O)cc1[C@H]2[C@H]1c2cc(C[C@H](C)O)cc(O)c2C(=O)c2c1cc(OC)c(Br)c2O
label 1
Cc1cc2c(C(=O)NCC#N)cccc2n1-c1nc2c(c(NCc3ccccc3)n1)CCCC2
label 1
Nc1c(C(=O)Nc2cccc3cnccc23)sc2nc3c(cc12)CN(Cc1ccccc1)CC3
label 0
COc1ccc(/C=C/c2nc(Nc3cccc(NC(C)=O)c3)c3ccccc3n2)cc1
label 0
Cc1ccc(CNc2c3ccccc3nc3cc(NC(=O)CCN4CCCC4)ccc23)cc1
label 1
CNCCOc1nc2c3cnccc3cc(-c3cc(OC)c(OC)c(OC)c3)c2c2ccncc12
label 1
CCCCCCCC(=O)OCC/C=C/C1OC1C1OC(=O)/C=C\C=C\C(=O)N(C(C)=O)C(=O)/C=C(/C)CCC2OC2C1OC(=O)NC(C)=O (stereo not drawn)
label 0

Task: Outcome? "O=C1c2cccc3c(-c4ccc5c(c4)ncn5C4CCCCC4)ccc(c23)C(=O)N1CCO"
Output: label 0

Task: Tell me the recorded outcome of this test for "O=S(=O)(NCCNc1nccc(-c2c(-c3cccc(O)c3)nc3occn23)n1)c1ccccc1" .
Output: label 0

Task: Write down the call the test reported for this compound. Item: "Cc1nn(-c2ccccc2)c(Cl)c1/C=C/C(=O)c1ccc(F)cc1"
Output: label 0

Task: Test call for this compound, please: "CC(=O)Nc1ccc(-c2ccc3c(c2)NC(=O)/C3=C\c2ccc[nH]2)cc1"
Output: label 0

Task: What did the test return for "O=C1/C=C/[C@@H](O)[C@@H]2C[C@@H](O)C[C@H]2/C=C/CCC[C@H](CCc2cccc3ccccc23)O1" ?
Output: label 1

Task: // param item: "COc1ccc2c(c1)oc1c(C)c3c(c(C)c12)C(=O)N(CCN1CCOCC1)C3=O" ; yields the recorded call
Output: label 0

Task: Assay result, entry COc1cc(NC(C)CCCNC(=O)CCC(=O)NCCCNCCCCCCCCCCNCCCNC(=O)CCC(=O)NCCCC(C)Nc2cc(OC)cc3cccnc23)c2ncccc2c1 (stereo not drawn) — outcome?
Output: label 0

Task: Please indicate how the test categorized "COC(=O)C1=C(C(=O)ON)[C@@H]2C=C[C@@]1([C@@H](Cc1ccccc1)Nc1ccccc1)O2" .
Output: label 0

###

Tested on: BT-549 breast
Assay: NCI-60 one-dose screen, 48 h
Conditions: 10 µM unless noted
Compounds without any hit were thinned out: in the full panel of roughly 83,000, 20% have a hit. The source made the active and inactive calls. How the source made its calls: active means growth percent below 10; inactive means the rest.
Your reply should match one of these outcome classes. Y for active, N for inactive

Please review the following examples before continuing.
N#CC1C(C#N)C(C(=O)c2ccc(Br)cc2)N2c3ccccc3C=CC12 (centres undefined)
N
COc1cc2oc(-c3cccc(C(=O)Nc4ccc(Cl)cc4)c3)cc(=O)c2c(O)c1OC
N
CCN(CC)CCOc1ccc(NC(=O)C(C(C)C)N2C(=O)/C(=C/c3ccc(Br)cc3)SC2=S)cc1 (centres undefined)
N
Cc1ccc(NC(C(=O)c2ccccc2)c2ccccc2)cc1 (centres undefined)
N
COC(=O)C1=C(C(=O)ON)C2C=CC1(C(Cc1ccccc1)Nc1ccccc1)O2 (centres undefined)
N

Switching to the query record.
Task: Each molecule tested received a call. Report the one for "O=C(CNCCN1CCOCC1)N1c2cccc3cccc(c23)N(C(=O)CNCCN2CCOCC2)C1c1cn(-c2ccccc2)nc1-c1cccc([N+](=O)[O-])c1" .
Output: N
